System: U2OS
Assay: cell viability relative to DMSO; higher = less toxic
Conditions: 72 h; 10000 nM
# cell viability per record follows
Numeric answer only, unit % assumed.

{"columns": ["compound", "cell viability [%]"],
 "data": [
  ["NC(=O)c1ccc(-c2nc(-c3ccc4c(c3)OCCO4)c(-c3ccccn3)[nH]2)cc1 [D-4476]", 91.9]
]}

Provide only the value of recorded cell viability for C[C@H]1O[C@@H](n2cc(F)c(=O)[nH]c2=O)[C@H](O)[C@@H]1O [doxifluridine]
90.6

// fetch cell viability given entry O=C(NCCN1CCN(c2ncccn2)CC1)C12CC3CC(CC(C3)C1)C2 [adatanserin]
97.4

Return cell viability (reported value) for this compound: C=C(c1ccccc1OCc1cccc(Cl)c1)n1ccnc1 [croconazole]
90

Read off the recorded cell viability for c1ccc(-c2cnn3cc(-c4ccc(OCCN5CCOCC5)cc4)cnc23)cc1 [DMH4]
80.8

Hello, please tell me recorded cell viability for this one: O=C(O)CCCc1c[nH]c2ccccc12 [3-indolebutyric-acid]
99.9

====

Tested on: U2OS
Experiment: cell viability relative to DMSO; higher = less toxic
Settings: 72 h; 10 nM
Reported cell viability by item:
Hi! Could you send only the number? It should be in %, unit omitted.

Name the recorded cell viability of the molecule listed here: O=C(O)[C@H](O)[C@@H](O)[C@H](O[C@@H]1O[C@H](CO)[C@H](O)[C@H](O)[C@H]1O)[C@H](O)CO [maltobionic-acid]
103

Assign cell viability to the following record: `O=C(Nc1ncc(SCCN2CCCC2)s1)[C@]1(c2ccc(S(=O)(=O)C3CC3)cc2)C[C@H]1C1CCCCC1`
105

Let me know recorded cell viability for CCOC(=O)c1c(O)nc2cccc3c2c1-c1ccccc1C3=O [NQDI-1] , thanks.
101

Please list cell viability recorded for the molecule CCCCCCCCCCCCCCCC(=O)C(F)(F)F [PACOCF3]
103

Return reported cell viability. Input molecule: O=c1n(CC2CO2)c(=O)n(CC2CO2)c(=O)n1CC1CO1 (stereo not given) [teroxirone]
95.7

====

Test system: Caco-2
Experiment: drug sensitivity score (DSS) for viability; higher = more toxic; extreme values may be limits of the assay
Conditions: 72 h
Recorded drug sensitivity score values for a group of compounds are listed next.

{"columns": ["smiles.record", "drug sensitivity score"],
 "data": [
  ["CC[C@@H]1C(=O)N(C)c2cnc(Nc3ccc(C(=O)N[C@H]4CC[C@H](N5CCN(CC6CC6)CC5)CC4)cc3OC)nc2N1C(C)C", 11.5],
  ["CC(=O)/N=c1/[nH]c(C)c(-c2ccc(Cl)c(S(=O)(=O)NCCO)c2)s1", 3.2],
  ["O=C(/C=C\\n1cnc(-c2cc(C(F)(F)F)cc(C(F)(F)F)c2)n1)N1CC(F)(F)C1", 5.4]
]}

For Caco-2, give drug sensitivity score of the listed compound: `N#Cc1ccc(-c2ccc(S(=O)(=O)Nc3cccc(N)n3)cc2)cc1`
0

====

System: Caco-2
Assay: cell viability relative to DMSO; higher = less toxic
Details: 72 h; 10000 nM
quantity: cell viability (%)
Only the number, expressed in %, is required.

{"columns": ["compound", "quantity", "assay.value"],
 "data": [
  ["CCOc1ccc(C[C@H]2NC(=O)CCSSC[C@@H](C(=O)N3CCC[C@H]3C(=O)N[C@@H](CCCN)C(=O)NCC(N)=O)NC(=O)[C@H](CC(N)=O)NC(=O)[C@H]([C@@H](C)O)NC(=O)[C@H]([C@@H](C)CC)NC2=O)cc1", "cell viability", 91.8],
  ["OCC(Br)(Br)Br", "cell viability", 107],
  ["OCc1ccc(CO)o1", "cell viability", 103]
]}

Supply recorded cell viability for `CC[C@@H]1C(=O)N(C)c2cnc(Nc3ccc(C(=O)N[C@H]4CC[C@H](N5CCN(CC6CC6)CC5)CC4)cc3OC)nc2N1C(C)C` here.
26.7

Tell us which cell viability value is on record for `COc1ccc2cc1Oc1cc3c(cc1OC)CC[N+](C)(C)[C@H]3Cc1ccc(cc1)Oc1c(OC)c(OC)cc3c1[C@@H](C2)[N+](C)(C)CC3`
105

Give recorded cell viability. `N#Cc1ccc(-c2ccc(S(=O)(=O)Nc3cccc(N)n3)cc2)cc1`
91

Please list cell viability recorded for the compound `O=C1NC(c2ccccc2)(c2ccccc2)C(=O)N1COP(=O)(O)O`
105

====

Test system: Caco-2
Test: cell viability relative to DMSO; higher = less toxic
Settings: 72 h; 10 nM
// cell viability lookup, one value per entry
Unit % implied. Number only.

Here are 3 molecules together with their reported answers.
{"columns": ["molecule", "target.of.assay", "measurement.unit", "cell viability"],
 "data": [
  ["N#Cc1cccc(-c2nc(-c3cccnc3)no2)c1 [NS-9283]", "Caco-2", "%", 94.4],
  ["CC(C)NC(=O)N1CC[C@H](NC2=Nc3cc(F)ccc3N(CC(F)F)c3ccc(Cl)cc32)C1 [NVS-PAK1-1]", "Caco-2", "%", 120],
  ["Nc1ccc(C(=O)O)cc1 [potassium-p-aminobenzoate]", "Caco-2", "%", 97.1]
]}

Given the molecule O=C(O)CCCCCCCC(=O)O [azelaic-acid] , write its reported cell viability.
97

Give the reported value of cell viability for this record: `Cc1ccc(/C=C2\CNC/C(=C\c3ccc(C)cc3)C2=O)cc1`
98.6

Given the molecule OC[C@H]1O[C@@H](c2ccc(F)c(Cc3cc4ccccc4s3)c2)[C@H](O)[C@@H](O)[C@@H]1O [ipragliflozin-L-proline] , write its reported cell viability.
99.8

====

cell viability listing for selected molecules.
Test system: HepG2
Assay: cell viability relative to DMSO; higher = less toxic
Conditions: 72 h; 1 nM
Write the number in % without appending the unit.

Look over these answered cases.
{"columns": ["molecule", "assay.value"],
 "data": [
  ["COc1cnc(NS(=O)(=O)c2ccc(N)cc2)nc1", 102],
  ["OCCCNc1ccccc1", 103],
  ["Cc1cc(C)c2nc(-c3ccccn3)cc(C(=O)Nc3ccc(S(=O)(=O)Nc4onc(C)c4C)cc3)c2c1", 89.7],
  ["O=C(O)c1cc2ccccc2s1", 112],
  ["C/N=C(/NC#N)NCCSCc1csc(NC(=N)N)n1", 96.4],
  ["O=C(O)c1cc2cccc([N+](=O)[O-])c2[nH]1", 102],
  ["COc1ccc(Cc2cnc(N)nc2N)cc1OC", 95.6],
  ["Nc1nc(N)c2nc(-c3ccccc3)c(N)nc2n1", 97.9],
  ["Cn1c(N2CCCCS2(=O)=O)nc(C(=O)NCc2ccc(F)cc2)c(O)c1=O", 103],
  ["Nc1ccc(-c2ccc3ncc4ccc(=O)n(-c5cccc(C(F)(F)F)c5)c4c3c2)cn1", 91.2]
]}

Input `O=C1c2ccccc2C(Cc2ccnc(F)c2)(Cc2ccnc(F)c2)c2ccccc21` , output reported cell viability.
90.1

Return cell viability (reported value) for this molecule: `CC(=O)/N=c1/[nH]c(C)c(-c2ccc(Cl)c(S(=O)(=O)NCCO)c2)s1`
91.8

Specify cell viability for CC(=O)OCC(=O)[C@@]1(O)CC[C@H]2[C@@H]3CCC4=CC(=O)CC[C@]4(C)[C@H]3[C@@H](O)C[C@@]21C [hydrocortisone-acetate] and stop.
101

Give recorded cell viability. `O=C(OCCN1CCCCC1)c1c[nH]c2ccccc12`
102

Item `CCOc1ccccc1N/N=C1/C(=O)N(c2nc(-c3ccccc3)cs2)N=C1C` : provide cell viability
106

Fill in cell viability for record Nc1ccc(C(=O)O)cc1 [potassium-p-aminobenzoate]
102

Return reported cell viability. Input molecule: `CCCCCCCCCCCCCCCCOc1nc2ccc(C)cc2c(=O)o1`
106

Please give the documented cell viability of `O=C(O)c1cc([N+](=O)[O-])ccc1NCCCc1ccccc1`
91.7

Output cell viability of `CC(C)c1ccccc1Cc1cc(C(=O)Nc2ccc(S(=O)(=O)c3ccccc3C(C)(C)C)cc2)c(O)c(O)c1O`
98.8

====

System: Calu-3
Test: relative viability EC50 (midpoint between 100% and the lowest measured viability); higher = less toxic
Conditions: 72 h
quantity: relative viability EC50

{"columns": ["compound", "relative viability EC50"],
 "data": [
  ["CC(C)C[C@@H](C=O)NC(=O)[C@H](CC(C)C)NC(=O)[C@H](CC(C)C)NC(=O)OCc1ccccc1 [MG-132]", "0.578 µM"],
  ["COC(=O)c1ccc(N2CCN(C)CC2)c(NC(=O)c2cccc(OC)c2)c1 [WDR5-0103]", "> 10 µM"],
  ["CC(C)C[C@H](NC(=O)[C@H](Cc1ccccc1)NC(=O)c1cnccn1)B(O)O [bortezomib]", "0.0064 µM"],
  ["C=CCc1cc(OC)c(O)c(C(=O)NCCO)c1 [alibendol]", "> 10 µM"],
  ["NCC(=O)N1C[C@H](NC(=O)c2ccccc2)C[C@H]1C(=O)O [danegaptide]", "> 10 µM"]
]}

Query relative viability EC50 for C=C[C@]1(C)CC[C@@H](C(=C)C)C[C@H]1C(=C)C [beta-elemene]
> 10 µM

Look up relative viability EC50 of Nc1nc(N)c2nc(-c3ccccc3)c(N)nc2n1 [triamterene] and report it.
> 10 µM

Using the record for C=C1/C(=C\C=C2/CCC[C@]3(C)[C@@H]([C@H](C)CCCC(C)C)CC[C@@H]23)C[C@@H](O)C[C@@H]1O [alfacalcidol] , state its measured relative viability EC50.
> 10 µM
